Data credit: ChEMBL document CHEMBL1126752

Assay: Half-life time in rats
Assay type: ADME, organism-based
Conditions: rat, in vivo
readout-label: half-life (h)
A number alone suffices; assume h.

Requested read-out: half-life. Entry: CCCN1CC[C@H]2c3c(cccc3C(N)=O)CC[C@H]21 (stereo in doubt; (-)-3a)
2

----------
Test system: Rattus norvegicus
Test: 5-HTP accumulation in hemispheres of reserpinized rats following subcutaneous administration
Assay type: functional
Settings: sc
# ED50 per entry
A number alone suffices; assume µmol/kg.

Which ED50 is reported with Rattus norvegicus for this entry: O=C(NCCN1CCN(c2cccc3c2OCC(CO)O3)CC1)c1ccc(F)cc1 (single isomer, unassigned; (+)) ?
0.63

----------
Experiment: Half-life in rats
Assay type: ADME, organism-based
Details: rat, in vivo
readout-label: half-life (min)
A number alone suffices; assume min.

Requested read-out: half-life. Entry: CCCN1CCC2c3c(cccc3C(N)=O)CCC21 (racemic)
90

----------
Biological target: 5-hydroxytryptamine receptor 1A (Homo sapiens, UniProt P08908)
Sequence (P08908 whole entry): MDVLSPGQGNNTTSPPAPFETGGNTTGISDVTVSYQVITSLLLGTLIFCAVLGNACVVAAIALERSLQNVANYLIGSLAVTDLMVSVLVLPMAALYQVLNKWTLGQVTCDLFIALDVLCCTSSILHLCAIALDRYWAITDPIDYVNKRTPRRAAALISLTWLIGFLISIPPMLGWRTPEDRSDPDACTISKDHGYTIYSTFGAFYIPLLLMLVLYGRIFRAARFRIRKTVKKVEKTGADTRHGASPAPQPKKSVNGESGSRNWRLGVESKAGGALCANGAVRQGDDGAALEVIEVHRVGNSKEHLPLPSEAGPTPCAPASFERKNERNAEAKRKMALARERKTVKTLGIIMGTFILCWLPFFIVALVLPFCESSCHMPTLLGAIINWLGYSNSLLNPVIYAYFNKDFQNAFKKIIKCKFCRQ
Assay: Binding affinity against [3H]8-OH-DPAT-labeled 5-hydroxytryptamine 1A receptor sites in cloned CHO cells
readout-label: pKi
Bear in mind: pKi is minus log10 of a mol/L concentration; give just that figure.

# count of solved cases: 2
Requested read-out: pKi. Entry: CCCN1CCC2c3c(cccc3C(N)=O)CC[C@@H]21 (single isomer, unassigned; (+)-3a)
7.77

Requested read-out: pKi. Entry: CCCN1CC[C@H]2c3c(cccc3C(N)=O)CC[C@H]21 (stereo in doubt; (-)-3a)
8.72

***
Requested read-out: pKi. Entry: CCCN1CC[C@H]2c3c(cccc3C(N)=O)CC[C@H]21 (stereo in doubt; (-)-3b)
7.55

Requested read-out: pKi. Entry: O=C(NCCN1CCN(c2cccc3c2OCC(CO)O3)CC1)c1ccc(F)cc1 (single isomer, unassigned; (+))
8.54

Requested read-out: pKi. Entry: CCCN1CCC2c3c(cccc3C(N)=O)CCC21 (racemic)
8.54

----------
# ED50 per entry
Test system: Felis catus
Experiment: Inhibition of sympathetic nerve discharge (SND) in anesthetized cat
Type: functional
A number alone suffices; assume µmol/kg.

# count of solved cases: 3
Requested read-out: ED50. Entry: CCCN1CCC2c3c(cccc3C(N)=O)CCC21 (racemic)
0.1

Requested read-out: ED50. Entry: CCCN(CCC)C1CCc2cccc(O)c2C1 (racemic)
0.03

Requested read-out: ED50. Entry: O=C(NCCN1CCN(c2cccc3c2OCC(CO)O3)CC1)c1ccc(F)cc1 (single isomer, unassigned; (+))
0.14

# context switch: different compound, same ED50
Requested read-out: ED50. Entry: CCCN1CC[C@H]2c3c(cccc3C(N)=O)CC[C@H]21 (stereo in doubt; (-)-3a)
0.049

----------
Test system: Mus musculus
Test: Effect on hypothermia in mice following peroral administration
Details: po
readout-label: ED50 (µmol/kg)
A number alone suffices; assume µmol/kg.

# count of solved cases: 4
Requested read-out: ED50. Entry: CCCN(CCC)C1CCc2cccc(O)c2C1 (racemic) [8-OH-DPAT]
30

Requested read-out: ED50. Entry: CCCN1CCC2c3c(cccc3C(N)=O)CC[C@@H]21 (single isomer, unassigned; (+)-3a)
28

Requested read-out: ED50. Entry: CCCN1CC[C@H]2c3c(cccc3C(N)=O)CC[C@H]21 (stereo in doubt; (-)-3a)
2.8

Requested read-out: ED50. Entry: CCCN1CCC2c3c(cccc3C(N)=O)CCC21 (racemic)
28

# context switch: different molecule, same ED50
Requested read-out: ED50. Entry: O=C(NCCN1CCN(c2cccc3c2OCC(CO)O3)CC1)c1ccc(F)cc1 (single isomer, unassigned; (+))
1.6

----------
Test: Half-life time in rats
Format: ADME, organism-based
Settings: rat, in vivo
readout-label: half-life
Reply with the number, then its unit.

Requested read-out: half-life. Entry: CCCN(CCC)C1CCc2cccc(O)c2C1 (racemic)
1 h

----------
# ED50 per entry
Tested on: Rattus norvegicus
Test: 5-HTP accumulation in hemispheres of reserpinized rats following subcutaneous administration
Type: functional
Conditions: sc
A number alone suffices; assume µmol/kg.

# count of solved cases: 2
Requested read-out: ED50. Entry: CCCN(CCC)C1CCc2cccc(O)c2C1 (racemic) [8-OH-DPAT]
0.063

Requested read-out: ED50. Entry: CCCN1CCC2c3c(cccc3C(N)=O)CC[C@@H]21 (single isomer, unassigned; (+)-3a)
5.2

***
Requested read-out: ED50. Entry: CCCN1CCC2c3c(cccc3C(N)=O)CCC21 (racemic)
1.25
